Data credit: BigSolDB 2.1

CONDITION_INFO: in ethanol, 308.15 K
VALUE_TYPE: solubility (mole fraction)
Form field (numeric): enter value without unit.

May I ask what solubility (mole fraction) has been recorded for CCC[C@@H]1C[C@@H](C(=O)N[C@@H]([C@H]2O[C@H](SC)[C@H](O)[C@H]3OC(C)(C)O[C@H]32)[C@H](C)Cl)N(C)C1 ?
0.0506

---

CONDITION_INFO: in ethyl acetate, 303.15 K
VALUE_TYPE: solubility (mole fraction)
Form field (numeric): enter value without unit.

May I ask what solubility (mole fraction) has been recorded for CCC[C@@H]1C[C@@H](C(=O)N[C@@H]([C@H]2O[C@H](SC)[C@H](O)[C@H]3OC(C)(C)O[C@H]32)[C@H](C)Cl)N(C)C1 ?
0.026

---

CONDITION_INFO: in n-propyl acetate, 278.15 K
VALUE_TYPE: solubility (mole fraction)

May I ask what solubility (mole fraction) has been recorded for CCC[C@@H]1C[C@@H](C(=O)N[C@@H]([C@H]2O[C@H](SC)[C@H](O)[C@H]3OC(C)(C)O[C@H]32)[C@H](C)Cl)N(C)C1 ?
0.008

---

CONDITION_INFO: in methyl acetate, 273.15 K
VALUE_TYPE: solubility (mole fraction)
Form field (numeric): enter value without unit.

May I ask what solubility (mole fraction) has been recorded for CCC[C@@H]1C[C@@H](C(=O)N[C@@H]([C@H]2O[C@H](SC)[C@H](O)[C@H]3OC(C)(C)O[C@H]32)[C@H](C)Cl)N(C)C1 ?
0.0087

---

CONDITION_INFO: in methanol, 278.15 K
VALUE_TYPE: solubility (mole fraction)
Form field (numeric): enter value without unit.

May I ask what solubility (mole fraction) has been recorded for CCC[C@@H]1C[C@@H](C(=O)N[C@@H]([C@H]2O[C@H](SC)[C@H](O)[C@H]3OC(C)(C)O[C@H]32)[C@H](C)Cl)N(C)C1 ?
0.0255

---

CONDITION_INFO: in acetonitrile, 273.15 K
VALUE_TYPE: solubility (mole fraction)
Form field (numeric): enter value without unit.

May I ask what solubility (mole fraction) has been recorded for CCC[C@@H]1C[C@@H](C(=O)N[C@@H]([C@H]2O[C@H](SC)[C@H](O)[C@H]3OC(C)(C)O[C@H]32)[C@H](C)Cl)N(C)C1 ?
0.0032

---

CONDITION_INFO: in acetonitrile, 278.15 K
VALUE_TYPE: solubility (mole fraction)

May I ask what solubility (mole fraction) has been recorded for CCC[C@@H]1C[C@@H](C(=O)N[C@@H]([C@H]2O[C@H](SC)[C@H](O)[C@H]3OC(C)(C)O[C@H]32)[C@H](C)Cl)N(C)C1 ?
0.004

---

CONDITION_INFO: in n-propanol, 313.15 K
VALUE_TYPE: solubility (mole fraction)
Form field (numeric): enter value without unit.

May I ask what solubility (mole fraction) has been recorded for CCC[C@@H]1C[C@@H](C(=O)N[C@@H]([C@H]2O[C@H](SC)[C@H](O)[C@H]3OC(C)(C)O[C@H]32)[C@H](C)Cl)N(C)C1 ?
0.0751

---

CONDITION_INFO: in isopropanol, 273.15 K
VALUE_TYPE: solubility (mole fraction)
Form field (numeric): enter value without unit.

May I ask what solubility (mole fraction) has been recorded for CCC[C@@H]1C[C@@H](C(=O)N[C@@H]([C@H]2O[C@H](SC)[C@H](O)[C@H]3OC(C)(C)O[C@H]32)[C@H](C)Cl)N(C)C1 ?
0.0102

---

CONDITION_INFO: in methanol, 303.15 K
VALUE_TYPE: solubility (mole fraction)
Form field (numeric): enter value without unit.

May I ask what solubility (mole fraction) has been recorded for CCC[C@@H]1C[C@@H](C(=O)N[C@@H]([C@H]2O[C@H](SC)[C@H](O)[C@H]3OC(C)(C)O[C@H]32)[C@H](C)Cl)N(C)C1 ?
0.0554

---

CONDITION_INFO: in n-propanol, 298.15 K
VALUE_TYPE: solubility (mole fraction)
Form field (numeric): enter value without unit.

May I ask what solubility (mole fraction) has been recorded for CCC[C@@H]1C[C@@H](C(=O)N[C@@H]([C@H]2O[C@H](SC)[C@H](O)[C@H]3OC(C)(C)O[C@H]32)[C@H](C)Cl)N(C)C1 ?
0.0428

---

CONDITION_INFO: in ethanol, 313.15 K
VALUE_TYPE: solubility (mole fraction)
Form field (numeric): enter value without unit.

May I ask what solubility (mole fraction) has been recorded for CCC[C@@H]1C[C@@H](C(=O)N[C@@H]([C@H]2O[C@H](SC)[C@H](O)[C@H]3OC(C)(C)O[C@H]32)[C@H](C)Cl)N(C)C1 ?
0.0594

---

CONDITION_INFO: in acetone, 278.15 K
VALUE_TYPE: solubility (mole fraction)
Form field (numeric): enter value without unit.

May I ask what solubility (mole fraction) has been recorded for CCC[C@@H]1C[C@@H](C(=O)N[C@@H]([C@H]2O[C@H](SC)[C@H](O)[C@H]3OC(C)(C)O[C@H]32)[C@H](C)Cl)N(C)C1 ?
0.0132

---

CONDITION_INFO: in ethanol, 303.15 K
VALUE_TYPE: solubility (mole fraction)
Form field (numeric): enter value without unit.

May I ask what solubility (mole fraction) has been recorded for CCC[C@@H]1C[C@@H](C(=O)N[C@@H]([C@H]2O[C@H](SC)[C@H](O)[C@H]3OC(C)(C)O[C@H]32)[C@H](C)Cl)N(C)C1 ?
0.0423

---

CONDITION_INFO: in methyl acetate, 303.15 K
VALUE_TYPE: solubility (mole fraction)
Form field (numeric): enter value without unit.

May I ask what solubility (mole fraction) has been recorded for CCC[C@@H]1C[C@@H](C(=O)N[C@@H]([C@H]2O[C@H](SC)[C@H](O)[C@H]3OC(C)(C)O[C@H]32)[C@H](C)Cl)N(C)C1 ?
0.0293

---

CONDITION_INFO: in isobutanol, 308.15 K
VALUE_TYPE: solubility (mole fraction)

May I ask what solubility (mole fraction) has been recorded for CCC[C@@H]1C[C@@H](C(=O)N[C@@H]([C@H]2O[C@H](SC)[C@H](O)[C@H]3OC(C)(C)O[C@H]32)[C@H](C)Cl)N(C)C1 ?
0.0584

---

CONDITION_INFO: in n-propanol, 293.15 K
VALUE_TYPE: solubility (mole fraction)
Form field (numeric): enter value without unit.

May I ask what solubility (mole fraction) has been recorded for CCC[C@@H]1C[C@@H](C(=O)N[C@@H]([C@H]2O[C@H](SC)[C@H](O)[C@H]3OC(C)(C)O[C@H]32)[C@H](C)Cl)N(C)C1 ?
0.0363

---

CONDITION_INFO: in n-butanol, 298.15 K
VALUE_TYPE: solubility (mole fraction)
Form field (numeric): enter value without unit.

May I ask what solubility (mole fraction) has been recorded for CCC[C@@H]1C[C@@H](C(=O)N[C@@H]([C@H]2O[C@H](SC)[C@H](O)[C@H]3OC(C)(C)O[C@H]32)[C@H](C)Cl)N(C)C1 ?
0.0478

---

CONDITION_INFO: in n-butanol, 303.15 K
VALUE_TYPE: solubility (mole fraction)

May I ask what solubility (mole fraction) has been recorded for CCC[C@@H]1C[C@@H](C(=O)N[C@@H]([C@H]2O[C@H](SC)[C@H](O)[C@H]3OC(C)(C)O[C@H]32)[C@H](C)Cl)N(C)C1 ?
0.0571

---

CONDITION_INFO: in ethyl acetate, 288.15 K
VALUE_TYPE: solubility (mole fraction)
Form field (numeric): enter value without unit.

May I ask what solubility (mole fraction) has been recorded for CCC[C@@H]1C[C@@H](C(=O)N[C@@H]([C@H]2O[C@H](SC)[C@H](O)[C@H]3OC(C)(C)O[C@H]32)[C@H](C)Cl)N(C)C1 ?
0.0143

---

CONDITION_INFO: in n-propanol, 273.15 K
VALUE_TYPE: solubility (mole fraction)
Form field (numeric): enter value without unit.

May I ask what solubility (mole fraction) has been recorded for CCC[C@@H]1C[C@@H](C(=O)N[C@@H]([C@H]2O[C@H](SC)[C@H](O)[C@H]3OC(C)(C)O[C@H]32)[C@H](C)Cl)N(C)C1 ?
0.015

---

CONDITION_INFO: in isopropanol, 288.15 K
VALUE_TYPE: solubility (mole fraction)
Form field (numeric): enter value without unit.

May I ask what solubility (mole fraction) has been recorded for CCC[C@@H]1C[C@@H](C(=O)N[C@@H]([C@H]2O[C@H](SC)[C@H](O)[C@H]3OC(C)(C)O[C@H]32)[C@H](C)Cl)N(C)C1 ?
0.018

---

CONDITION_INFO: in n-propyl acetate, 283.15 K
VALUE_TYPE: solubility (mole fraction)
Form field (numeric): enter value without unit.

May I ask what solubility (mole fraction) has been recorded for CCC[C@@H]1C[C@@H](C(=O)N[C@@H]([C@H]2O[C@H](SC)[C@H](O)[C@H]3OC(C)(C)O[C@H]32)[C@H](C)Cl)N(C)C1 ?
0.0106
